# assayed system: HLA-A*02:06
# assay details: IEDB peptide-MHC binding, purified MHC/competitive/radioactivity; bounds were set here for any values at or beyond the usual limits of such assays
# test settings: source organism: Vaccinia virus WR
Returns: string. Value is 1 if measured IC50 is below 1 µM, and -1 if it is greater than or equal to it.

Some solved cases for reference:
FVATFRDML | 1
GLKIEEIEKV | 1
HVLLPFYETL | 1
DTMSIYIAVA | -1
IMEIVSHLRA | -1
STFNMWREIL | -1

Problem: State whether 1 µM exceeds IC50 recorded for LLVQYGAKI .
Solution: -1

Problem: State whether 1 µM exceeds IC50 recorded for NTIAVITETI .
Solution: 1

---

# assayed system: HLA-A*02:01
# assay details: IEDB peptide-MHC binding, purified MHC/competitive/radioactivity; bounds were set here for any values at or beyond the usual limits of such assays
# test settings: source organism: Vaccinia virus WR
pIC50: −log10 of the molar value.
Output: class label from pIC50. Mapping: lowest = under 6, middle = from 6 up to 8, highest = 8 and over

Some solved cases for reference:
YLGMFNPYSL | highest
FLTAALPVKL | middle
YVPGYSITT | middle
DIKYISRDEL | lowest
FLRGEAILQI | middle

Problem: Class (by measured pIC50) for TVSDYISEL
Solution: middle

Problem: Class (by measured pIC50) for TLLCVLPAV
Solution: highest

Problem: Class (by measured pIC50) for LMDSIFVST
Solution: highest

Problem: Class (by measured pIC50) for VQFSILNNPV
Solution: lowest

Problem: Class (by measured pIC50) for LLVQRVTSV
Solution: highest

Problem: Class (by measured pIC50) for IVAMLLTHGA
Solution: lowest

Problem: Class (by measured pIC50) for GTIILNKIV
Solution: lowest

Problem: Class (by measured pIC50) for RLRQDTEDI
Solution: middle

Problem: Class (by measured pIC50) for RIITILQDI
Solution: middle

Problem: Class (by measured pIC50) for ILGILYLYET
Solution: middle

Problem: Class (by measured pIC50) for ALAKNASEL
Solution: middle

Problem: Class (by measured pIC50) for LLFLVCFPST
Solution: middle

Problem: Class (by measured pIC50) for NVTGFMEEEI
Solution: lowest

Problem: Class (by measured pIC50) for ELIKELTTL
Solution: middle

Problem: Class (by measured pIC50) for SMLGIWFFT
Solution: highest

Problem: Class (by measured pIC50) for LLSKNTFYL
Solution: highest

Problem: Class (by measured pIC50) for DLLFNEKLKV
Solution: middle

Problem: Class (by measured pIC50) for FVLVDNVDFA
Solution: middle

Problem: Class (by measured pIC50) for IITILQDIV
Solution: middle

Problem: Class (by measured pIC50) for IVAAVIIMAI
Solution: lowest

---

Assign IC50 to each entry below.
# assayed system: HLA-A*02:01
# assay details: IEDB peptide-MHC binding, purified MHC/competitive/radioactivity; bounds were set here for any values at or beyond the usual limits of such assays
# test settings: source organism: Vaccinia virus WR
Quick note: unit goes after the number.

Consider the worked cases shown below.
RIIDSEVVV | 94 nM
KVLSIMAFIL | 88 nM
VVISVIFYFI | 616 nM

Batch lookup, IC50 per entry.
1. KQDRSDGYFL
2. YTISSESLV
3. NTFYLFTFTI
4. FTKDGKLDDT
5. IMRNFLRSI
6. FVFRSPFIV

Solution:
3910 nM
1060 nM
55 nM
980 nM
2060 nM
4.6 nM
